Tested on: Enterococcus faecium (ATCC 51559, a vancomycin resistant strain (VRE))
Test Method Notes: MIC, NCCLS broth microdilution assay
Type: cell-based
Test Context: D = E. faecium ATCC 51559
Endpoint: Minimum Inhibitory Concentration (MIC)

• Cn1cc(NC(=O)c2cc(NC(=O)c3ccc(Cl)cc3F)cn2C)cc1C(=O)NCCN1CCOCC1 = +++ (+++ = MIC ≦ 4)
• Cc1cc(NC(=O)c2cc(NC(=O)c3cc(NC(=O)c4ccc(F)cc4F)cn3C)cn2CCCN(C)C)sn1 = + (+ = 12 ≦ MIC ≦ 32)
• Cc1cc(NC(=O)c2cc(NC(=O)c3cc(NC(=O)c4ccc(Cl)cc4F)cn3C)cn2CCN2CCOCC2)sn1 = +++ (+++ = MIC ≦ 4)
• Cn1cc(NC(=O)c2cc(NC(=O)c3cc(NC(=O)c4ccc(F)cc4F)cn3C)cn2C)cc1C(=O)NCCc1ccncc1 = +++ (+++ = MIC ≦ 4)
• Cn1cc(NC(=O)c2cc(NC(=O)c3cc(NC(=O)c4ccc(F)cc4F)cn3C)cn2C)cc1C(=O)NCCN1CCSCC1 = + (+ = 12 ≦ MIC ≦ 32)
• Cn1cc(NC(=O)c2cc(NC(=O)c3cc(NC(=O)c4ccc(Cl)cc4F)cn3C)cn2C)cc1C(=O)NCCN1CCOCC1 = +++ (+++ = MIC ≦ 4)
• Cn1cc(NC(=O)c2cc(NC(=O)c3ccc(Cl)cc3F)c[nH]2)cc1C(=O)NCCN1CCC(F)(F)CC1 = +++ (+++ = MIC ≦ 4)
• Cn1cc(NC(=O)c2cc(NC(=O)c3cc(NC(=O)c4ccc(Cl)cc4NCCN4CCCCC4)cn3C)cn2C)cc1C(=O)NCCN1CCCCC1 = +++ (+++ = MIC ≦ 4)
• Cn1cc(NC(=O)c2cc(NC(=O)c3cc(NC(=O)c4ccc(F)cc4F)cn3C)cn2C)cc1C(=O)NCCN1CCCCCC1 = +++ (+++ = MIC ≦ 4)
• Cn1cc(NC(=O)c2cc(NC(=O)c3ccc(Cl)cc3F)c[nH]2)cc1C(=O)NCCN1CCCCC1 = +++ (+++ = MIC ≦ 4)
• Cn1cc(NC(=O)c2cc(NC(=O)c3cc(NC(=O)c4ccc(Cl)cc4F)cn3C)cn2C)cc1C(=O)NCCN1CCSCC1 = +++ (+++ = MIC ≦ 4)
• Cn1cc(NC(=O)c2cc(NC(=O)c3cc(NC(=O)c4ccc(Cl)cc4)cn3C)cn2C)cc1C(=O)NCCN1CCSCC1 = + (+ = 12 ≦ MIC ≦ 32)
• Cn1cc(NC(=O)c2ccc(F)cc2F)cc1C(=O)Nc1cc(C(=O)Nc2cc(C(=O)N3CCC(O)CC3)n(C)c2)n(C)c1 = >32 µg/mL

====

Tested on: E. faecalis ATCC 29212
Test Method Notes: MIC, NCCLS broth microdilution assay
Assay type: cell-based, Enterococcus faecalis
Test Context: C = E. faecalis ATCC 29212
Endpoint: Minimum Inhibitory Concentration (MIC)

- Cn1cc(NC(=O)c2cc(NC(=O)c3cc(NC(=O)c4ccc(F)cc4F)c[nH]3)cn2C)cc1C(=O)NCCN1CCCC1: +++ (+++ = MIC ≦ 4)
- Cn1cc(NC(=O)c2cc(NC(=O)c3cc(NC(=O)c4ccc(Cl)cc4F)cn3C)cn2C)cc1C(=O)NCCN1CCSCC1: +++ (+++ = MIC ≦ 4)
- Cc1cc(NC(=O)c2cc(NC(=O)c3cc(NC(=O)c4ccc(F)cc4F)c[nH]3)cn2CCN2CCOCC2)sn1: >32 µg/mL
- Cn1cc(NC(=O)c2cc(NC(=O)c3ccc(Cl)cc3F)c[nH]2)cc1C(=O)Nc1cc(C(=O)NCCN2CCCCC2)n(CCN2CCOCC2)c1: +++ (+++ = MIC ≦ 4)
- Cn1cc(NC(=O)c2cc(NC(=O)c3cc(NC(=O)c4ccc(F)cc4F)cn3C)cn2C)cc1C(=O)NCCN1CCCC1: +++ (+++ = MIC ≦ 4)
- Cn1cc(NC(=O)c2cc(NC(=O)c3cc(NC(=O)c4ccc(Cl)cc4)cn3C)cn2C)cc1C(=O)NCCN1CCSCC1: +++ (+++ = MIC ≦ 4)
- Cn1cc(NC(=O)c2cc(NC(=O)c3cc(NC(=O)c4ccc(F)cc4NCCCNC4CCCCC4)cn3C)cn2C)cc1C(N)=O: >32 µg/mL
- Cn1cc(NC(=O)c2cc(NC(=O)c3cc(NC(=O)c4ccc(C#N)cc4)cn3C)cn2C)cc1C(=O)NCCN1CCSCC1: +++ (+++ = MIC ≦ 4)
